Parameter: growth inhibition. Scope: all listed entries.
- test_name: NCI Yeast Anticancer Drug Screen. Data for the cln2 rad14 strain (AID 165);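 also: 0% = growth equal to vehicle treated cultures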
- run_parameters: S. cerevisiae cln2 rad14 strain, at 50.0 µM, active compounds read high
This is part of a sample that, as a whole, favours compounds with a hit. Of some 79,000 tested, about 15% had one in any assay.
Output spec: scalar in %, unitless text.

• Cc1c[nH]c2c1C13CC1CN(C(=O)c1cc4cc(NC(=O)c5cc6ccccc6o5)ccc4[nH]1)C3=CC2=O (stereo not drawn) = 88.2
• Cc1cc(N)ccc1N = 4.25
• CC(C)CCCC(C)CCC1C(=O)NC(=S)NC1=O (stereo not drawn) = 1.75
• O=C(O)c1cc([N+](=O)[O-])cc([N+](=O)[O-])c1 = -34.2
• CCC1(CCC(C)C)C(=O)NC(=O)N(c2ccccc2)C1=O (stereo not drawn) = 7.2
• CCCCCCCCCCOP(OCCCCCCCCCC)Oc1ccccc1 = 10.5
• CSc1ccc([As](=O)(O)O)cc1 = 24.3
• O=[N+]([O-])c1ccc(CI)cc1 = -3.55
• CC1(C)N=C(N)N=C(N)N1c1ccc(CCCCCCc2ccc(S(=O)(=O)F)cc2)cc1 = 99
• O.O.[Cl][Pt+2][Cl].[NH-]CC[NH-] = 41.5

Give the measured growth inhibition of `CN(/N=C/c1ccnc2ccccc12)c1c([N+](=O)[O-])cc([N+](=O)[O-])cc1[N+](=O)[O-]` . 18.9

// next record `CCOc1ccc(/C=C/c2cc(OC)c(OC)c(OC)c2)cc1` -10.3

// next record `N/C(N=P(c1ccccc1)(c1ccccc1)c1ccccc1)=N\[N+](=O)[O-]` 4.65

// next record `Oc1ccc(Cl)c(Cl)c1` -3.1

// next record Cc1ccc(S(N)(=O)=O)cc1 (tested in a mixture with another compound) 10.8

// next record CC(Nc1c([N+](=O)[O-])ccc(C(=O)NCCN(C)C)c1[N+](=O)[O-])C(=O)Nc1ccc(N(CCCl)CCCl)cc1 (stereo not drawn) 7.35

// next record `Cc1cc(NC(=O)/C=C/c2ccc([N+](=O)[O-])cc2Cl)ccc1S(=O)(=O)F` -17.4

// next record `Cc1cccc(OP(=O)(c2ccccc2)c2ccccc2)c1` -40.6

// next record CC(=O)C1=C(O)C2C3c4c[nH]c5cccc(c45)CC3C(C)(C)N2C1=O (stereo not drawn) -12.8

// next record `CN1CCN[C@@H]2CCCC[C@@H]21` -7.8

// next record `ICc1nc2ccccc2[nH]1` -1.75

// next record COc1ccc(CC(N)c2nn[nH]n2)cc1 (stereo not drawn) -23.1

// next record CCOC(=O)C1C(=O)NC2CCC(=O)CC21c1ccc2c(c1)OCO2 (stereo not drawn) -3.55

###

- test_name: NCI Yeast Anticancer Drug Screen. Data for the bub3 strain (AID 167)
- run_parameters: S. cerevisiae bub3 mutant strain, at 50.0 µM, active compounds read high
Compounds without any hit were thinned out: in the full panel of roughly 79,000, 15% have a hit.
quantity_name: growth inhibition (%)
Output spec: scalar in %, unitless text.

Study these solved cases before continuing.
• CC1OC(=O)C2CC3CCCCC3C(/C=C/C3CCCC(C)N3C)C12 (configuration not stated) = -10.4
• O=C(O)CP(=S)(S)c1ccccc1 (configuration not stated) = -27.8
• CCCCOP(O)(=S)OCCCC.[Tb] = -14.8

Give the measured growth inhibition of CCC(OC(=O)C1C(C=C(C)C)C1(C)C)c1cc2c(cc1Cl)OCO2 (configuration not stated) . -10.7

// next record CCCC(C)SP(=S)(SC(C)CCC)SC(C)CCC (configuration not stated) 2.85

// next record CCOP(=O)(NCc1ccccc1)c1ccc(N)cc1 (configuration not stated) -0.5

// next record `CSc1nc2cc(Cl)ccc2c2c1C=NCCN2` -24.1

// next record O=C(O)C(Br)CBr (configuration not stated) -1.55

// next record CC1OC(OC2CCC3(C=O)C4CCC5(C)C(C6=CC(=O)OC6)CCC5(O)C4CCC3(O)C2)C(O)C(O)C1O (configuration not stated) -9.15

// next record `O=[N+]([O-])c1ccc(N=Nc2ccc(N(CCCl)CCCl)cc2)cc1` 5

// next record O=C(c1ccccc1)N1CC(Cl)CN(C(=O)c2ccccc2)CC(Cl)C1 (configuration not stated) 16.3

// next record Oc1cccc(/C=N\NC(=S)NC2CN3CCC2CC3)c1 (configuration not stated) 7.1

###

Parameter: growth inhibition. Scope: all listed entries.
- test_name: NCI Yeast Anticancer Drug Screen. Data for the mlh1 rad18 strain (AID 175)
- run_parameters: S. cerevisiae mlh1 rad18 strain growth inhibition; at 50.0 µM; active compounds read high
Compounds without any hit were thinned out: in the full panel of roughly 79,000, 15% have a hit.
Output spec: scalar in %, unitless text.

Study these solved cases before continuing.
* CC1OC(OC2C(O)CC(OC3C(O)CC(OC4CCC5(C)C(CCC6C5CCC5(C)C(C7=CC(=O)OC7)C(O)CC65O)C4)OC3C)OC2C)CC(O)C1O (stereo unspecified) | 27.6
* CNC(=O)Oc1ccc(Br)cc1Br | 2.35
* COc1ccc2c(c1O)C13C=C(OS(=O)(=O)c4ccc(C)cc4)C=CC1C(C2)N(C)CC3 (stereo unspecified) | 3.55
* CN1CN(c2ccccc2)C2(CCN(Cc3csc4ccccc34)CC2)C1=O | -20.1
* OC[C@@H](O)[C@@H](O)CO | 10.1

Give the measured growth inhibition of `N#CC(C#N)=Cc1ccccc1C(=O)O` . -4.1

// next record COc1ccc2c(c1O)-c1cc(O)cc3c1C(C2)N(CCCl)CC3 (stereo unspecified) 48.7

###

Parameter: growth inhibition. Scope: all listed entries.
- test_name: NCI Yeast Anticancer Drug Screen. Data for the cln2 rad14 strain (AID 165);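 also: 0% = growth equal to vehicle treated cultures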
- run_parameters: S. cerevisiae cln2 rad14 strain, at 50.0 µM, active compounds read high
This is part of a sample that, as a whole, favours compounds with a hit. Of some 79,000 tested, about 15% had one in any assay.
Output spec: scalar in %, unitless text.

Study these solved cases before continuing.
- O=C(O)C(Br)CBr (configuration not stated): -13.2
- CCCCCCCCCCCC(=O)[O][Pb]([CH2]CCC)([CH2]CCC)[O]C(=O)CCCCCCCCCCC: -3.15
- CCCCCCCCCCC(=O)O: -4.65
- Nc1ncn[nH]1: 7.9
- CC(C)CC1N=C(NN=C(CCl)CCl)SP1(=O)NCCCCCCNP1(=O)SC(NN=C(CCl)CCl)=NC1CC(C)C (configuration not stated): -11.7
- CN(C)C(=O)Oc1cc(O)cc([N+](=O)[O-])c1: -6.35
- CCCC(OP(=S)(OCC)OCC)c1ccc(Cl)cc1 (configuration not stated): -32.3
- CC(CO)[N+](=O)[O-] (configuration not stated): -15.2
- OC1CN=C2c3ccccc3C(O)(c3ccc(Cl)cc3)N2C1 (configuration not stated): -1.9
- CCNC1CCCCC1: 29.1

Give the measured growth inhibition of COc1cc2cc(c1Cl)N(C)C(=O)CC(OC(=O)C(C)C)C1(C)OC1C(C)C1CC(O)(NC(=O)O1)C(OC)/C=C/C=C(C)C2 (configuration not stated) . -22.8

// next record CC(Br)C(=O)C(CCN(C)C)(c1ccccc1)c1ccccc1 (configuration not stated) -6.4

###

- test_name: NCI Yeast Anticancer Drug Screen. Data for the rad50 strain (AID 155);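 also: 0% = growth of vehicle-only cultures of the same strain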
- run_parameters: S. cerevisiae rad50 strain growth inhibition; at 50.0 µM; active compounds read high
About 79,000 compounds went through this panel and 15% of them were active in at least one assay; those are over-represented in the sample as a whole.
quantity_name: growth inhibition (%)
Output spec: scalar in %, unitless text.

- [Cl][Co][Br].[NH-]CC[NH-].[NH-]CC[NH-]: -12.7
- Cc1cc(C)c(C(=O)O)c(C)c1.[Hg]: 99.6
- CC1(C)N=C(N)N=C(N)N1c1ccc(CCCCCCc2ccc(S(=O)(=O)F)cc2)cc1: 99.5
- CC(C)(C)C1=C(Br)C(Br)(C(C)(C)C)OP1(=O)c1ccccc1 (stereo unspecified): 7.9
- CN1C(=O)C(=CN(C)c2ccccc2)C(=O)N(C)C1=O: 13.2

Now for a further molecule.
Give the measured growth inhibition of [Cl][Pt]([Cl])[Cl].[NH-]C1CN2CCC1CC2 (stereo unspecified) . 19.9

###

- test_name: NCI Yeast Anticancer Drug Screen. Data for the mlh1 rad18 strain (AID 175)
- run_parameters: S. cerevisiae mlh1 rad18 strain growth inhibition; at 50.0 µM; active compounds read high
This is part of a sample that, as a whole, favours compounds with a hit. Of some 79,000 tested, about 15% had one in any assay.
Parameter: growth inhibition. Scope: all listed entries.
Output spec: scalar in %, unitless text.

Study these solved cases before continuing.
* COc1ccc([N+](=O)[O-])cc1 | -20.9
* [O-][n+]1c2ccccc2nc2ccccc21 | 55.7
* COc1ccc2c3c1OC1C(OC)(OC)CC4(C=C2)CN(C)CCC314 (stereo unspecified) | -11.8
* CCN(c1ccccc1)P(I)(c1ccccc1)(c1ccccc1)c1ccccc1 | 99
* CCCCCCCCCCCCCCCC(=O)[O][Hg][c]1ccccc1 | 98.8

Now for a further compound.
Give the measured growth inhibition of CC(=O)OC1CCC2(C)C(=CCC3C4C/C(=C\N5CCCC5)C(=O)C4(C)CCC32)C1 (stereo unspecified) . 95.3
